The reported measurements were obtained from ChEMBL document CHEMBL1130866.

This section presents molecules with their documented IC50 values.
system: KB; assay: Compound was evaluated for its cytotoxicity against vincristine-resistant KB/VJ300 human oral epidermoid carcinoma cell lines.; format: functional, cell-based
Please state the figure in µg/mL; there is no need to write the unit.

In the examples that follow, each entry is paired with its recorded IC50.
INSERT INTO results (molecule, recorded_metric, reported_value) VALUES
  ('CC[C@]1(O)C[C@H]2CN(CCc3c([nH]c4ccccc34)[C@@](C(=O)OC)(c3cc4c(cc3OC)N(C=O)[C@H]3[C@@](O)(C(=O)OC)[C@H](OC(C)=O)[C@]5(CC)C=CCN6CC[C@]43[C@@H]65)C2)C1 [VINCRISTINE]', 'IC50', 1.05),
  ('C/C=C1/CN(C)[C@H]2Cc3c([nH]c4ccccc34)[C@@H](c3c(OC)ccc4c5c([nH]c34)[C@]3(C(=O)OC)C[C@@H]4C[C@H]([C@H](C)O)C3N(CC5)C4)C[C@H]1[C@]2(CO)C(=O)OC', 'IC50', 15),
  ('C/C=C1\CN(C)[C@H]2Cc3c([nH]c4ccccc34)[C@@H](c3cc4c5c([nH]c4cc3OC)[C@]3(C(=O)OC)C[C@@H]4C[C@H]([C@H](C)O)C3N(CC5)C4)C[C@H]1[C@]2(CO)C(=O)OC', 'IC50', 13.5),
  ('C/C=C1/CN(C)[C@H]2Cc3c([nH]c4ccccc34)[C@@H](c3cc4c5c([nH]c4cc3OC)[C@]3(C(=O)OC)C[C@@H]4C[C@H](C(C)=O)[C@@H]3N(CC5)C4)C[C@H]1[C@]2(CO)C(=O)OC', 'IC50', 17);

Switching to the query record.
# IC50 of `C/C=C1/CN(C)[C@H]2Cc3c([nH]c4ccccc34)[C@@H](c3c(OC)ccc4c5c([nH]c34)[C@]3(C(=O)OC)C[C@@H]4C[C@H](C(C)=O)C3N(CC5)C4)C[C@H]1[C@]2(CO)C(=O)OC` = 13.6

---

system: KB; assay: Compound was evaluated for its cytotoxicity against vincristine-sensitive KB/S human oral epidermoid carcinoma cell lines.; type: functional, cell-based
Friendly reminder: IC50 below 20 µg/mL is Fulfilled, at or above is Not fulfilled.

// below: answered compounds
INSERT INTO measurements (smiles_entry, label_class) VALUES
  ('C/C=C1/CN(C)[C@H]2Cc3c([nH]c4ccccc34)[C@@H](c3c(OC)ccc4c5c([nH]c34)[C@]3(C(=O)OC)C[C@@H]4C[C@H]([C@H](C)O)C3N(CC5)C4)C[C@H]1[C@]2(CO)C(=O)OC', 'Not fulfilled'),
  ('CC[C@]1(O)C[C@H]2CN(CCc3c([nH]c4ccccc34)[C@@](C(=O)OC)(c3cc4c(cc3OC)N(C=O)[C@H]3[C@@](O)(C(=O)OC)[C@H](OC(C)=O)[C@]5(CC)C=CCN6CC[C@]43[C@@H]65)C2)C1', 'Fulfilled'),
  ('C/C=C1\CN(C)[C@H]2Cc3c([nH]c4ccccc34)[C@@H](c3cc4c5c([nH]c4cc3OC)[C@]3(C(=O)OC)C[C@@H]4C[C@H]([C@H](C)O)C3N(CC5)C4)C[C@H]1[C@]2(CO)C(=O)OC', 'Fulfilled'),
  ('C/C=C1/CN(C)[C@H]2Cc3c([nH]c4ccccc34)[C@@H](c3cc4c5c([nH]c4cc3OC)[C@]3(C(=O)OC)C[C@@H]4C[C@H](C(C)=O)[C@@H]3N(CC5)C4)C[C@H]1[C@]2(CO)C(=O)OC', 'Not fulfilled');

Lab note: IC50 threshold 20 µg/mL. Does this compound come in strictly under it? `C/C=C1/CN(C)[C@H]2Cc3c([nH]c4ccccc34)[C@@H](c3c(OC)ccc4c5c([nH]c34)[C@]3(C(=O)OC)C[C@@H]4C[C@H](C(C)=O)C3N(CC5)C4)C[C@H]1[C@]2(CO)C(=O)OC`
Fulfilled
